The entries below come with measured DC50 values attached.
Target: BRM (Homo sapiens, UniProt P51531)
Construct: Western Blot Screen of BRM Degradation in SW1573 Cells; endogenous in cells; host or cells: SW1573 cells
Sequence (P51531 whole entry): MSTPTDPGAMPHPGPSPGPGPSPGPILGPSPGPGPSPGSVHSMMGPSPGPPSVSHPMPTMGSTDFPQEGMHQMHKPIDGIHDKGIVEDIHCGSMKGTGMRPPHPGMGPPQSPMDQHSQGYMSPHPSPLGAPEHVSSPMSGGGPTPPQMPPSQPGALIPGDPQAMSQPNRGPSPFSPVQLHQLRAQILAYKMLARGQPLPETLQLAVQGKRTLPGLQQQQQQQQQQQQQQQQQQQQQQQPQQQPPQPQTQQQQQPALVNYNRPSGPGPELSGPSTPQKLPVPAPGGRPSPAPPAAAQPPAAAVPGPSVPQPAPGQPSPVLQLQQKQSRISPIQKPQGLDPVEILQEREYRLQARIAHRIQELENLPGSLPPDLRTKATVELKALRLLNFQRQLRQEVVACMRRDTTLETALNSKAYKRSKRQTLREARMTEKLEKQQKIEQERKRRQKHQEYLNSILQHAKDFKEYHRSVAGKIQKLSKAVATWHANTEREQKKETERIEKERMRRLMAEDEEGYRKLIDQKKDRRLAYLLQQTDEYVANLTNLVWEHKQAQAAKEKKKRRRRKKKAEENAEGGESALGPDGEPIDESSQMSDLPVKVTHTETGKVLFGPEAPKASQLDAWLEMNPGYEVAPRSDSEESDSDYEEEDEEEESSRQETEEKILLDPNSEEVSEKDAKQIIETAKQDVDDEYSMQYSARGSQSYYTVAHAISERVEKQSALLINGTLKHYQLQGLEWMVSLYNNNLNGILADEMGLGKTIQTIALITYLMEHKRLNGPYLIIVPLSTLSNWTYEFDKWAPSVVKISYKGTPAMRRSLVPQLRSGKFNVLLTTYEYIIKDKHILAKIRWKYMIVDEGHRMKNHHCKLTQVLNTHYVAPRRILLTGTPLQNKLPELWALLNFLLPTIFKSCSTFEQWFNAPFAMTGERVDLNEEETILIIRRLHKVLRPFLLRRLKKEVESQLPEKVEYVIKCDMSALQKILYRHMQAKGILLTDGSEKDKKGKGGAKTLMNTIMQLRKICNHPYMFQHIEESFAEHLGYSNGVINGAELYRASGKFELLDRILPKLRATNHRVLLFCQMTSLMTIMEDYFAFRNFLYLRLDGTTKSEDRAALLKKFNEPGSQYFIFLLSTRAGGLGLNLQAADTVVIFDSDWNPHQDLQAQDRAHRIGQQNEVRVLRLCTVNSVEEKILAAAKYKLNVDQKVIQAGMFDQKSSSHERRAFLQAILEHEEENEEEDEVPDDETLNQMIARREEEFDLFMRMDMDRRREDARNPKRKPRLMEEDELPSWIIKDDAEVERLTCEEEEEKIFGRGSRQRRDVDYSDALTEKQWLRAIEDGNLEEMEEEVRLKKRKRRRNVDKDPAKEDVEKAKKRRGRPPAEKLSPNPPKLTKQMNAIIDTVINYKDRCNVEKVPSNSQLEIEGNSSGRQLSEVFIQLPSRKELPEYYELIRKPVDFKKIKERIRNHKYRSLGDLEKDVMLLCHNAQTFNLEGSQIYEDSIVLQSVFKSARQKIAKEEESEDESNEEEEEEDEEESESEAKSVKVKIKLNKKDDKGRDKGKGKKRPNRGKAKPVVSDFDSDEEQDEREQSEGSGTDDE
Experiment: BRM degradation (Dmax and DC50) in SW1573 cells, Western blot screen / In-Cell Western screen
Assay type: cell-based
Conditions: overnight (18-20 hours) treatment
Procedure: To assess BRM degradation (Dmax and DC50) cells were seeded at 8000/well in 96-well black/clear-bottom plates in 180 μL DMEM growth media (containing 1% pen-strep, 1% HEPES and 10% FBS) per well. Plates were incubated overnight to allow adhesion. […] To read each plate TBS-T was removed, and each plate was inverted tapped on a paper towel. […]

Requested field: DC50. Item: Cc1ncsc1-c1ccc([C@H](C)NC(=O)[C@@H]2C[C@@H](O)CN2C(=O)[C@@H](c2cc(OCCN3CCN(CCOc4cc(N5C6CCC5CN(c5cc(-c7ncccc7O)nnc5N)C6)ccn4)[C@H](C)C3)no2)C(C)C)cc1 [Compound 149] ≥ 30 nM

Requested field: DC50. Item: Cc1ncsc1-c1ccc([C@H](C)NC(=O)[C@@H]2C[C@@H](O)CN2C(=O)[C@@H](c2cc(N3CCC(CN4CCC5(CC4)CC(N4CCO[C@H]([C@H](C)n6cc(C#Cc7cc(-c8ccccc8O)nnc7N)cn6)C4)C5)CC3)no2)C(C)C)cc1 [Compound 96] < 2.5 nM

Requested field: DC50. Item: CC(C)[C@H](C(=O)N1C[C@H](O)C[C@H]1C(=O)N[C@@H](C)c1ccc(C#N)cc1)c1cc(N2CCC(OCCN3CCC(Oc4cc(N5CCN(c6cc(-c7ccccc7O)nnc6N)CC5)ccn4)CC3)CC2)no1 [Compound 154] ≥ 30 nM

Data credit: patent US20250059198A1
